- target.under.test: S100B (Homo sapiens, UniProt P04271)
- Construct: made in house; host or cells: Escherichia coli BL21(DE3)
- Sequence (P04271 whole entry): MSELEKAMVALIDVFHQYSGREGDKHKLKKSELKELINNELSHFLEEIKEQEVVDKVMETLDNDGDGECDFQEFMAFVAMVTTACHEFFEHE
- assay.explanation: Pull-down assay with immobilized protein and LSM libraries
- Type: binding
- conditions.used: H14 library; 1:1 binding assumed; read-out: Surface mapping KD (apparent)
readout.name: pKd
By convention, pKd is the negative base-10 log of a molar concentration.

Record excerpt, results attached:
// pKd (S100B (Homo sapiens, UniProt P04271)) for NCCCC[C@@H](CC(=O)N[C@H]1CCCC[C@@H]1C(=O)N[C@H]1CCCC[C@@H]1C(=O)N[C@@H](CO)CC(=O)N[C@H]1CCCC[C@@H]1C(N)=O)NC(=O)[C@H]1CCCC[C@@H]1N = 3.66

Tested system S100B (Homo sapiens, UniProt P04271); pKd recorded for CC[C@H](C)[C@@H](CC(=O)N[C@H]1CCCC[C@@H]1C(N)=O)NC(=O)[C@H]1CCCC[C@@H]1NC(=O)[C@H]1CCCC[C@@H]1NC(=O)C[C@H](C)NC(=O)[C@H]1CCCC[C@@H]1N was 3.97

# ---- query compound ----
The reported pKd value, S100B (Homo sapiens, UniProt P04271), for CC(C)[C@@H](CC(=O)N[C@H]1CCCC[C@@H]1C(N)=O)NC(=O)[C@H]1CCCC[C@@H]1NC(=O)[C@H]1CCCC[C@@H]1NC(=O)C[C@H](Cc1c[nH]c2ccccc12)NC(=O)[C@H]1CCCC[C@@H]1N reads 4.80

---

List of pKd values.
- target.under.test: Gal-1 (Homo sapiens, UniProt P09382)
- Construct: made in house; host or cells: E. coli BL21(DE3)
- Sequence (P09382 whole entry): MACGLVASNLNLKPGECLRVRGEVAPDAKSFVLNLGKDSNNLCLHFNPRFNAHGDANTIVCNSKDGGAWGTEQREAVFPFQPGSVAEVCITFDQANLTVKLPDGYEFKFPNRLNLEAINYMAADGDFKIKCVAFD
- assay.explanation: Competition pull-down with lactose
- Type: binding
- conditions.used: H14 library; lactose 10 mM; read-out: Surface mapping KD (apparent), competition
// returns pKd (minus log10 of molar concentration), number only

Below, 2 compounds whose answers are already recorded.
Looking up C[C@@H](O)[C@@H](CC(=O)N[C@H]1CCCC[C@@H]1C(=O)N[C@H]1CCCC[C@@H]1C(=O)N[C@@H](CO)CC(=O)N[C@H]1CCCC[C@@H]1C(N)=O)NC(=O)[C@H]1CCCC[C@@H]1N , I found its pKd recorded as 3.41

Looking up CSCC[C@@H](CC(=O)N[C@H]1CCCC[C@@H]1C(N)=O)NC(=O)[C@H]1CCCC[C@@H]1NC(=O)[C@H]1CCCC[C@@H]1NC(=O)C[C@H](CCC(N)=O)NC(=O)[C@H]1CCCC[C@@H]1N , I see its pKd listed as 3.39

Others:
Form field pKd, entry CC[C@H](C)[C@@H](CC(=O)N[C@H]1CCCC[C@@H]1C(=O)N[C@H]1CCCC[C@@H]1C(=O)N[C@H](CC(=O)N[C@H]1CCCC[C@@H]1C(N)=O)CC(C)C)NC(=O)[C@H]1CCCC[C@@H]1N : 4.30

Lab note: CC[C@H](C)[C@@H](CC(=O)N[C@H]1CCCC[C@@H]1C(N)=O)NC(=O)[C@H]1CCCC[C@@H]1NC(=O)[C@H]1CCCC[C@@H]1NC(=O)C[C@@H](NC(=O)[C@H]1CCCC[C@@H]1N)C(C)C gave pKd of 3.53

What the record says about NCCCC[C@@H](CC(=O)N[C@H]1CCCC[C@@H]1C(=O)N[C@H]1CCCC[C@@H]1C(=O)N[C@@H](CC(=O)O)CC(=O)N[C@H]1CCCC[C@@H]1C(N)=O)NC(=O)[C@H]1CCCC[C@@H]1N : pKd is 3.54

---

- target.under.test: S100A4 (Homo sapiens)
- Construct: made in house; host or cells: Escherichia coli BL21(DE3)
- Sequence (P26447 whole entry): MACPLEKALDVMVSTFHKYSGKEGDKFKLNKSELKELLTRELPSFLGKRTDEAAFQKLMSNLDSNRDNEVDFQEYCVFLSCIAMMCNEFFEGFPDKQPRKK
- assay.explanation: Pull-down assay with immobilized protein and LSM libraries
- Format: binding
- conditions.used: H14 library; 1:1 binding assumed; read-out: Surface mapping KD (apparent)
Each record here notes measured Kd.
Field format: number, assumed µM, no unit text.

# count of solved cases: 2
Reported Kd for CSCC[C@@H](CC(=O)N[C@H]1CCCC[C@@H]1C(N)=O)NC(=O)[C@H]1CCCC[C@@H]1NC(=O)[C@H]1CCCC[C@@H]1NC(=O)C[C@H](Cc1ccc(O)cc1)NC(=O)[C@H]1CCCC[C@@H]1N was 90

Entry CC[C@H](C)[C@@H](CC(=O)N[C@H]1CCCC[C@@H]1C(N)=O)NC(=O)[C@H]1CCCC[C@@H]1NC(=O)[C@H]1CCCC[C@@H]1NC(=O)C[C@H](CCSC)NC(=O)[C@H]1CCCC[C@@H]1N , Kd reported as 11

***
CC(C)C[C@@H](CC(=O)N[C@H]1CCCC[C@@H]1C(N)=O)NC(=O)[C@H]1CCCC[C@@H]1NC(=O)[C@H]1CCCC[C@@H]1NC(=O)C[C@H](Cc1c[nH]c2ccccc12)NC(=O)[C@H]1CCCC[C@@H]1N yielded Kd of 10

Entry under test: NC(=O)[C@H]1CCCC[C@@H]1NC(=O)C[C@H](CCC(=O)O)NC(=O)[C@H]1CCCC[C@@H]1NC(=O)[C@H]1CCCC[C@@H]1NC(=O)C[C@H](Cc1c[nH]c2ccccc12)NC(=O)[C@H]1CCCC[C@@H]1N . Its Kd was 428

---

- target.under.test: S100B (Homo sapiens, UniProt P04271)
- Construct: made in house; host or cells: Escherichia coli BL21(DE3)
- assay.explanation: Pull-down assay with immobilized protein and LSM libraries
- Assay type: binding
- conditions.used: H14 library; 1:1 binding assumed; read-out: Surface mapping KD (apparent)
readout.name: pKd
When answering, recall that pKd equals minus log10 of the concentration in mol/L, and write that number alone.

pKd reported for this molecule CC[C@H](C)[C@@H](CC(=O)N[C@H]1CCCC[C@@H]1C(=O)N[C@H]1CCCC[C@@H]1C(=O)N[C@H](CC(=O)N[C@H]1CCCC[C@@H]1C(N)=O)Cc1c[nH]c2ccccc12)NC(=O)[C@H]1CCCC[C@@H]1N : 4.68

Measured pKd, C[C@@H](O)[C@@H](CC(=O)N[C@H]1CCCC[C@@H]1C(=O)N[C@H]1CCCC[C@@H]1C(=O)N[C@@H](CCCNC(=N)N)CC(=O)N[C@H]1CCCC[C@@H]1C(N)=O)NC(=O)[C@H]1CCCC[C@@H]1N : 4.03

pKd for NC(=O)[C@H]1CCCC[C@@H]1NC(=O)C[C@H](Cc1ccc(O)cc1)NC(=O)[C@H]1CCCC[C@@H]1NC(=O)[C@H]1CCCC[C@@H]1NC(=O)C[C@H](Cc1ccccc1)NC(=O)[C@H]1CCCC[C@@H]1N is 4.02

Let us examine a further case.
Memo: NCCCC[C@@H](CC(=O)N[C@H]1CCCC[C@@H]1C(=O)N[C@H]1CCCC[C@@H]1C(=O)N[C@@H](CC(N)=O)CC(=O)N[C@H]1CCCC[C@@H]1C(N)=O)NC(=O)[C@H]1CCCC[C@@H]1N , reported pKd: 3.71

---

- target.under.test: Gal-1 (Homo sapiens, UniProt P09382)
- Construct: made in house; host or cells: E. coli BL21(DE3)
- assay.explanation: Pull-down assay with immobilized protein and LSM libraries
- Type: binding
- conditions.used: H12 library; 1:1 binding assumed; read-out: Surface mapping KD (apparent)
readout.name: Kd

As a guide, the following entries are already answered.
The measured Kd associated with CC(C)[C@@H](CC(=O)N[C@H]1CCC[C@@H]1C(=O)N[C@H]1CCC[C@@H]1C(=O)N[C@H](CC(=O)N[C@H]1CCC[C@@H]1C(=O)N[C@H]1CCC[C@@H]1C(N)=O)Cc1ccccc1)NC(=O)[C@H]1CCC[C@@H]1NC(=O)[C@H]1CCC[C@@H]1N [H12 VF] reads 388 µM

Sample CC(C)[C@@H](CC(=O)N[C@H]1CCC[C@@H]1C(=O)N[C@H]1CCC[C@@H]1C(=O)N[C@@H](CC(N)=O)CC(=O)N[C@H]1CCC[C@@H]1C(=O)N[C@H]1CCC[C@@H]1C(N)=O)NC(=O)[C@H]1CCC[C@@H]1NC(=O)[C@H]1CCC[C@@H]1N [H12 VN] ; Kd observed: 497 µM

Item: NC(=O)[C@H]1CCC[C@@H]1NC(=O)[C@H]1CCC[C@@H]1NC(=O)C[C@H](CC(=O)O)NC(=O)[C@H]1CCC[C@@H]1NC(=O)[C@H]1CCC[C@@H]1NC(=O)C[C@H](Cc1ccc(O)cc1)NC(=O)[C@H]1CCC[C@@H]1NC(=O)[C@H]1CCC[C@@H]1N [H12 YD] | Kd: 205 µM

Given item CSCC[C@@H](CC(=O)N[C@H]1CCC[C@@H]1C(=O)N[C@H]1CCC[C@@H]1C(=O)N[C@@H](C)CC(=O)N[C@H]1CCC[C@@H]1C(=O)N[C@H]1CCC[C@@H]1C(N)=O)NC(=O)[C@H]1CCC[C@@H]1NC(=O)[C@H]1CCC[C@@H]1N [H12 MA] , the value recorded as its Kd is 194 µM

Measured Kd of NC(=O)CC[C@@H](CC(=O)N[C@H]1CCC[C@@H]1C(=O)N[C@H]1CCC[C@@H]1C(N)=O)NC(=O)[C@H]1CCC[C@@H]1NC(=O)[C@H]1CCC[C@@H]1NC(=O)C[C@H](Cc1ccc(O)cc1)NC(=O)[C@H]1CCC[C@@H]1NC(=O)[C@H]1CCC[C@@H]1N [H12 YQ] : 176 µM

More entries:
The value of Kd measured for the compound CC(C)[C@@H](CC(=O)N[C@H]1CCC[C@@H]1C(=O)N[C@H]1CCC[C@@H]1C(=O)N[C@H](CC(=O)N[C@H]1CCC[C@@H]1C(=O)N[C@H]1CCC[C@@H]1C(N)=O)Cc1c[nH]c2ccccc12)NC(=O)[C@H]1CCC[C@@H]1NC(=O)[C@H]1CCC[C@@H]1N [H12 VW] turned out to be 346 µM

Notebook: NCCCC[C@@H](CC(=O)N[C@H]1CCC[C@@H]1C(=O)N[C@H]1CCC[C@@H]1C(=O)N[C@H](CC(=O)N[C@H]1CCC[C@@H]1C(=O)N[C@H]1CCC[C@@H]1C(N)=O)Cc1c[nH]c2ccccc12)NC(=O)[C@H]1CCC[C@@H]1NC(=O)[C@H]1CCC[C@@H]1N [H12 KW] , Kd read as 161 µM

The recorded Kd for entry CC(C)[C@@H](CC(=O)N[C@H]1CCC[C@@H]1C(=O)N[C@H]1CCC[C@@H]1C(N)=O)NC(=O)[C@H]1CCC[C@@H]1NC(=O)[C@H]1CCC[C@@H]1NC(=O)C[C@@H](NC(=O)[C@H]1CCC[C@@H]1NC(=O)[C@H]1CCC[C@@H]1N)C(C)C [H12 VV] equals 439 µM
